Hey, just so you know, these numbers are from a collection of fitness landscapes (doi:10.1126/science.1257360).

B1: PhoQ; a variant is named by its letters at X, in order, P23837 (parent)
chain: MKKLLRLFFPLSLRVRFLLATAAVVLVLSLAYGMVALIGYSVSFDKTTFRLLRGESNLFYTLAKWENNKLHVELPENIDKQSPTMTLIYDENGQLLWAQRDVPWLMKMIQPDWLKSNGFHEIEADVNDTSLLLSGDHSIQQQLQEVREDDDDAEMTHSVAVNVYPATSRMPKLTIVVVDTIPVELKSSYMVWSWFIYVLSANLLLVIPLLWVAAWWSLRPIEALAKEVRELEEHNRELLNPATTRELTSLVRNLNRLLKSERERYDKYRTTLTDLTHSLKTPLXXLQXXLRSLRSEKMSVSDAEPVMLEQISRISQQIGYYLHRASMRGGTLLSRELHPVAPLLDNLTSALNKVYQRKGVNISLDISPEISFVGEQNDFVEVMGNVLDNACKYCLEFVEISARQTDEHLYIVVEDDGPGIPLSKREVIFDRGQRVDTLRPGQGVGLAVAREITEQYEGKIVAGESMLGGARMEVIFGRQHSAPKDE

Variants of: B1
Assay: enrichment ratio after two sorts for PhoP signalling (ratio (wild type AVST 3.29)); higher = more functional
Settings: with PhoP (E. coli)
Whole data set: some 140,000 sequences, median “enrichment ratio after two sorts for PhoP signalling” near 0, cut for the highest 2% near 11. What follows is part of a selection rich in the highest values, with near analogues and random picks from the rest.
Observed property: enrichment ratio

Form field: reported enrichment ratio of ATMC
11.2

Form field: reported enrichment ratio of RGMC
≤ 0.25

Form field: reported enrichment ratio of FFYM
≤ 0.25

Form field: reported enrichment ratio of HRMC
≤ 0.25

Form field: reported enrichment ratio of PTMC
≤ 0.25

Form field: reported enrichment ratio of GWYP
≤ 0.25

Form field: reported enrichment ratio of YSQQ
≤ 0.25

Form field: reported enrichment ratio of TGYM
26.5

Form field: reported enrichment ratio of QGYM
23.9

Form field: reported enrichment ratio of QQYM
47.2

Form field: reported enrichment ratio of SELH
19.4

Form field: reported enrichment ratio of QQYN
≤ 0.25

Form field: reported enrichment ratio of HKMC
≤ 0.25

Form field: reported enrichment ratio of SPLH
≤ 0.25

Form field: reported enrichment ratio of TKYN
≤ 0.25

Form field: reported enrichment ratio of ITLH
≤ 0.25

Form field: reported enrichment ratio of NSLH
≤ 0.25

Form field: reported enrichment ratio of NSMC
≤ 0.25

Form field: reported enrichment ratio of GKEW
≤ 0.25

Form field: reported enrichment ratio of SSLH
11.4

Form field: reported enrichment ratio of EACR
≤ 0.25

Form field: reported enrichment ratio of TKMC
77.6
